Origin of values: patent US10131652B2

As shown below, each of these compounds has a reported Plant response rating, Morningglory value.
Test system: morningglory (Ipomoea coccinea)
methodDescription: Test D pre-/postemergence plant response
Format: in vivo
particulars: Postemergence, 125 g ai/ha; scale 0 to 100, 0 no effect, 100 complete control
Could you keep your reply to the number by itself?

compound | Plant response rating, Morningglory
FC(Cl)c1cc(-c2ccccc2Oc2ncc(Cl)cn2)no1 (stereo not drawn) | 30
FC(F)(Cl)c1cc(-c2ccccc2Oc2ncc(Cl)cn2)no1 | 100
Clc1cnc(Oc2ccccc2-c2cc(C3CC3)on2)nc1 | 90
FCc1cc(-c2c(F)cccc2Oc2ncc(Cl)cn2)no1 | 65

# Plant response rating, Morningglory lookup, item FCc1cc(-c2c(Br)cccc2Oc2ncc(Cl)cn2)no1
85

# Plant response rating, Morningglory lookup, item Cc1cc(-c2c(F)cccc2Oc2ncc(Br)cn2)on1
70
